# TESTED TARGET: recombinant human truncated SHIP1 (tSHIP1) (Homo sapiens, UniProt Q92835)
# Construct: tSHIP1 (SHIP1, residues 397-864) was amplified from pET24TEV-tSHIP1; His tag; made in house; host or cells: E. coli BL21
# Sequence (Q92835 397-864): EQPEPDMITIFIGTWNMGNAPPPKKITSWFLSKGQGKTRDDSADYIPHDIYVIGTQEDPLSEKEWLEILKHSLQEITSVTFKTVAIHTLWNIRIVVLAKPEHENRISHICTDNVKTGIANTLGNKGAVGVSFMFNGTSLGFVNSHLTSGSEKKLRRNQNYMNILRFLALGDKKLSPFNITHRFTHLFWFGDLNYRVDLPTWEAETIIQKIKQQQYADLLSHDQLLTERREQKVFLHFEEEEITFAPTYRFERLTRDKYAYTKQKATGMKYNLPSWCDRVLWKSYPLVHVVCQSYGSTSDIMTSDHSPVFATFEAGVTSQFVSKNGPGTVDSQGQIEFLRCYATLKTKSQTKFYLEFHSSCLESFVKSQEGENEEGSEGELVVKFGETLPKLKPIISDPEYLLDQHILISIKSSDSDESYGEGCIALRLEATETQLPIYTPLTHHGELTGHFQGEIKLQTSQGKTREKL
# ASSAY METHOD TEXT: Malachite Green Phosphatase Release Assay (SHIP1 phosphatase activity)
# Assay type: biochemical
# TEST CONDITIONS: 125 μM analog; 100 μM PI(3,4,5)P3-diC8 substrate; normalized to vehicle control (DMSO) = 100%
QUANTITY MEASURED: Phosphatase activity in the Malachite Green Assay, analog concentration 125 μM (%)

COMPOUND	READOUT UNITS	QUANTITATIVE READOUT
Cc1sc(S(=O)(=O)N2CCCC2)cc1NC(=O)CNS(=O)(=O)c1ccc(F)cc1 [Compound K387]	%	100
Cc1sc(S(=O)(=O)N2CCSCC2)cc1NC(=O)[C@@H](Cc1ccccc1)NS(=O)(=O)c1ccc(F)cc1 [Compound K395]	%	112
CCN(CC)S(=O)(=O)c1cc(NC(=O)CNS(=O)(=O)c2ccc(F)cc2)c(C)s1 [Compound K383]	%	101
Cc1sc(S(=O)(=O)N2CCSCC2)cc1NC(=O)CNS(=O)(=O)c1ccc(F)cc1 [Compound K306]	%	95
Cc1sc(S(=O)(=O)N2CCSCC2)cc1NC(=O)[C@@H](NS(=O)(=O)c1ccc(F)cc1)c1ccccc1 [Compound K409]	%	94
Cc1sc(S(=O)(=O)N2CCSCC2)cc1NC(=O)CNS(=O)(=O)c1ccc(I)cc1 [Compound K374]	%	99
Cc1sc(S(=O)(=O)N2CCSCC2)cc1NC(=O)[C@@H]1CCCN1S(=O)(=O)c1ccc(F)cc1 [Compound K408]	%	107

----------
# TESTED TARGET: recombinant human truncated SHIP1 (tSHIP1) (Homo sapiens)
# Construct: tSHIP1 (SHIP1, residues 397-864) was amplified from pET24TEV-tSHIP1; His tag; made in house; host or cells: E. coli BL21
# ASSAY METHOD TEXT: Malachite Green Phosphatase Release Assay (SHIP1 phosphatase activity)
# Assay type: biochemical
# TEST CONDITIONS: bis-sulfonamide hybrids; 125 μM
# Procedure: ^aPhosphatase activity for SHIP1 and SHIP2 enzyme as determined in the malachite green assay. Results were normalized to the phosphatase activity level from vehicle control (DMSO) used as 100% activity. Values >100% are attributed to activation, while values <100% show inhibition of the enzyme compared to the control. The assay was performed at the indicated concentration of the small molecule with 100 μM PI(3,4,5)P3-diC8 as the substrate. ^bnd=not determined, compound 23 was insoluble. […]
QUANTITY MEASURED: Malachite (SHIP1), 125 μM (%)

COMPOUND	QUANTITATIVE READOUT
Cc1sc(S(=O)(=O)N2CCCCC2)cc1NC(=O)[C@@H]1CCCN1S(=O)(=O)c1ccc(C(F)(F)F)cc1 [Compound K422]	96
O=C(CNS(=O)(=O)c1ccc(C(F)(F)F)cc1)Nc1ccc(S(=O)(=O)N2CCCCC2)cc1 [Compound K426]	75
O=C(Nc1ccc(S(=O)(=O)N2CCCCC2)cc1)[C@@H]1CCCN1S(=O)(=O)c1ccc(C(F)(F)F)cc1 (stereo in doubt) [Compound K423]	99
O=C(Nc1ccc(S(=O)(=O)N2CCCCC2)cc1)[C@@H]1CCCN1S(=O)(=O)c1ccccc1C(F)(F)F [Compound K420]	99
Cc1sc(S(=O)(=O)N2CCCCC2)cc1NC(=O)[C@@H]1CCCN1S(=O)(=O)c1ccccc1C(F)(F)F [Compound K421]	96
CCCCNS(=O)(=O)c1ccc(NC(=O)[C@@H]2CCCN2S(=O)(=O)c2ccccc2C(F)(F)F)cc1 [Compound K424]	79
O=C(CNS(=O)(=O)c1ccccc1C(F)(F)F)Nc1ccc(S(=O)(=O)N2CCCCC2)cc1 [Compound K427]	80
CCCCNS(=O)(=O)c1ccc(NC(=O)[C@@H]2CCCN2S(=O)(=O)c2ccc(C(F)(F)F)cc2)cc1 [Compound K425]	75
